target: calmodulin (Sigma) (UniProt P62157 2-149); experiment: FP, 50 nM fluorescein-labelled peptide titrated with calmodulin, 25 C
Square brackets hold non-standard residues; d marks the D form. Ends that are not written are not given here. pS = N[C@@H](COP(=O)(O)O)C(=O)O
reported.property: Kd (µM)
Hi! Could you send only the number? It should be in µM, unit omitted.

GPSQPTYPGDDAPVRRL[pS]FFYILLDLYLDAPGVC(acetamidofluorescein)-NH2 (designed binder, also called PPKID4 (phosphorylated)) [PPKID4^P] :: 52

With those in mind, consider the next binder.
Request the reported Kd associated with RRL[pS]FFYILLDLYLDAPGVC(acetamidofluorescein)-NH2 (Chimeric alpha-helical portion of the PPKID peptides (residues 15-33); also called Peptide C (phosphorylated)) [peptide C^P]
178

Attribution: patent US20110028686A1
